molecular target: T1, Biotinylated His/Avi-tagged Gαs used in the RaPID selection, GppNHp-bound (human, UniProt P63092 7-394, biotin on the Avi tag (BirA co-expressed)); experiment: RaPID comparison selection: peptide-mRNA-cDNA complexes on Gαs-immobilized streptavidin beads, qPCR and sequencing
T1 construct: Immobilized on streptavidin magnetic beads
T1 sequence (P63092 other isoform, or with tags, fused parts or gaps limits assumed): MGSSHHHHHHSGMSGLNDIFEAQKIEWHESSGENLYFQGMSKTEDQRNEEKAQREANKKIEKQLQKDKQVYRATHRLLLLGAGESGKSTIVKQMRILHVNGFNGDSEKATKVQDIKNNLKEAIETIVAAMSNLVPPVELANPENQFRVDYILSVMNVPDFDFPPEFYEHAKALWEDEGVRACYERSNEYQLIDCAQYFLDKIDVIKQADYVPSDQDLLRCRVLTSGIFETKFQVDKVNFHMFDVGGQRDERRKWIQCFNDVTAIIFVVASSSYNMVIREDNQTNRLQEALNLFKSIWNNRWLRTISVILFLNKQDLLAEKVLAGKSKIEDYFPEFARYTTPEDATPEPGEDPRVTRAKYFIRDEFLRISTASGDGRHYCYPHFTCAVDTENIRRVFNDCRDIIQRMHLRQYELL
Positions of bridges follow the written chain, without caps; N, C: chain ends. Non-standard residues stand in square brackets, D forms with d.
OBSERVED_PROPERTY: fold selectivity for GppNHp-bound over GDP-bound Gαs

- BINDER: "{CH2CO}-[dY]LTNWGVYWDQYWCG-NH2 (thioether N-14; SMILES CC(C)C[C@@H]1NC(=O)[C@@H](Cc2ccc(O)cc2)NC(=O)CSC[C@@H](C(=O)NCC(N)=O)NC(=O)[C@H](Cc2c[nH]c3ccccc23)NC(=O)[C@H](Cc2ccc(O)cc2)NC(=O)[C@H](CCC(N)=O)NC(=O)[C@H](CC(=O)O)NC(=O)[C@H](Cc2c[nH]c3ccccc23)NC(=O)[C@H](Cc2ccc(O)cc2)NC(=O)[C@H](C(C)C)NC(=O)CNC(=O)[C@H](Cc2c[nH]c3ccccc23)NC(=O)[C@H](CC(N)=O)NC(=O)[C@H]([C@@H](C)O)NC1=O) [GN11]"
  OBSERVED_RESULT: "> 100 fold"

Now turn to the next binder.
Req: fold selectivity for GppNHp-bound over GDP-bound Gαs lookup needed for Ac-[dY]HEQFDNFCDLWCG-NH2 (thioether (positions not given here); also: thioether partner Cys9 or Cys13 not settled) [GN10] , thanks.
Resp: > 100 fold
